From: ChEMBL document CHEMBL3991601

Target: UniProt Q00537
Sequence (Q00537 whole entry): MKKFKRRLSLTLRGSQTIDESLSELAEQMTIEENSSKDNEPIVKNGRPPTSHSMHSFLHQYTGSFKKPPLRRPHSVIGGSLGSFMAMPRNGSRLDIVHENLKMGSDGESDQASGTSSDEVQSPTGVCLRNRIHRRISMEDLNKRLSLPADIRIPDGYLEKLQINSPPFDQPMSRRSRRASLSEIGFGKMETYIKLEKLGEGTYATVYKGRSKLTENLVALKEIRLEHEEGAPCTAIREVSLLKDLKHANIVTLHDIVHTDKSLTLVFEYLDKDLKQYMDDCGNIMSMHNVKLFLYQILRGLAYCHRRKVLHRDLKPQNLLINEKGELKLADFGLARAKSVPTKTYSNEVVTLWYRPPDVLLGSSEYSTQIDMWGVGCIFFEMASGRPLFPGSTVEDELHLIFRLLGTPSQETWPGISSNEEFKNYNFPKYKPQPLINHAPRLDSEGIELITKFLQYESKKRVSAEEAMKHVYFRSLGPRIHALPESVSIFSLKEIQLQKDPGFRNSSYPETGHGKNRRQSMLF
Active and inactive are the calls of the source.
Hi there, use one of these labels in your reply, thanks! active, inactive

query: Please state the recorded outcome for this compound: "C#Cc1cccc(Nc2ncnc3cc(OC)c(OCCCCCCC(=O)NO)cc23)c1"
result: inactive

query: Also need O=c1[nH]ccc2cc(OC3CCNCC3)ccc12 [SAR-407899 FREE BASE] , thanks.
result: inactive

query: Also need "Cc1nc2cc(-c3nn(C(C)C)c4ncnc(N)c34)ccc2o1" , thanks.
result: inactive

query: Also need "CCOc1cc2ncc(C#N)c(Nc3ccc(F)c(Cl)c3)c2cc1NC(=O)/C=C/CN(C)C" , thanks.
result: inactive

query: Also need "CCn1c(C(=O)N(C2CC2)C2CC2)cc2c3c(ncn3C)c(Nc3cc(C)n(C)n3)nc21" , thanks.
result: inactive

query: Also need "CC(C)(C)c1nc(-c2cccc(NS(=O)(=O)c3c(F)cccc3F)c2F)c(-c2ccnc(N)n2)s1" , thanks.
result: active

query: Also need "CCNC(=O)C#Cc1ccc2c(c1)NC(=O)/C2=C(\Nc1ccc(CN(C)C)cc1)c1ccccc1" , thanks.
result: inactive

query: Also need "Cn1cc(-c2cnn3c(N)c(Br)c([C@@H]4CCCNC4)nc23)cn1" , thanks.
result: inactive

query: Also need "O=C(Nc1nc2cccc(-c3ccc(CN4CCS(=O)(=O)CC4)cc3)n2n1)C1CC1" , thanks.
result: inactive

---

Target: ADP/ATP translocase 3 (Homo sapiens, UniProt P12236); further: in the data inactive means no Kd found up to 30 µM
Sequence (P12236 whole entry): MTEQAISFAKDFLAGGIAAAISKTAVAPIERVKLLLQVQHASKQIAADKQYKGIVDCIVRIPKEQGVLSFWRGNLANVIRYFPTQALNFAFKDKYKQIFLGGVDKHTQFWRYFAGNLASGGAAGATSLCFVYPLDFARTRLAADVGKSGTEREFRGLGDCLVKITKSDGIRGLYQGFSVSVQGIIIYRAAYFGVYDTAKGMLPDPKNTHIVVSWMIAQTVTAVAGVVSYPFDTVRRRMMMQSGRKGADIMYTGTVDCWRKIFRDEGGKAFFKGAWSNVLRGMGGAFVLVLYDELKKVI
Activity calls are given as the source filed them.
recorded-endpoint: Kd

query: Item Cn1cc(-c2cnn3c(N)c(Br)c([C@@H]4CCCNC4)nc23)cn1 [SCH-900776] has what recorded Kd?
result: > 30 µM (inactive)

query: Also need "C[C@H]1CNCCCN1S(=O)(=O)c1cccc2cncc(F)c12" , thanks.
result: > 30 µM (inactive)

query: Also need O=C(Nc1nc2cccc(-c3ccc(CN4CCS(=O)(=O)CC4)cc3)n2n1)C1CC1 [FILGOTINIB] , thanks.
result: > 30 µM (inactive)

query: Also need CNC(=O)c1cccc2cc(Oc3ccnc4cc(OCC5(N)CC5)c(OC)cc34)ccc12 [LUCITANIB] , thanks.
result: > 30 µM (inactive)

query: Also need CN(C[C@@H]1COCCO1)S(=O)(=O)Nc1ccc2ccc3ncc(-c4cnn(C)c4)cc3c(=O)c2c1 [MK-2461] , thanks.
result: > 30 µM (inactive)

query: Also need Cc1cc(C(=O)NOCCO)c(Nc2ccc(I)cc2F)n(C)c1=O [AZD-8330] , thanks.
result: > 30 µM (inactive)

query: Also need Cn1cc(C2=C(c3cn(C4CCN(Cc5ccccn5)CC4)c4ccccc34)C(=O)NC2=O)c2ccccc21 [ENZASTAURIN] , thanks.
result: > 30 µM (inactive)

query: Also need Cc1nc(Nc2n[nH]c3c2CN(C(=O)N[C@H](CN(C)C)c2ccccc2)C3(C)C)c2sccc2n1 [PF-03758309] , thanks.
result: > 30 µM (inactive)

query: Also need "C=CC(=O)N1CCC[C@H](n2c(=O)n(-c3ccc(Oc4ccccc4)cc3)c3c(N)ncnc32)C1" , thanks.
result: > 30 µM (inactive)

query: Also need COc1ncc(-c2ccc3nccc(-c4ccnnc4)c3c2)cc1NS(=O)(=O)c1ccc(F)cc1F [OMIPALISIB] , thanks.
result: > 30 µM (inactive)

query: Also need COc1c(OCCCN2CCOCC2)ccc2c1N=C(NC(=O)c1cnc(N)nc1)N1CCN=C21 [COPANLISIB] , thanks.
result: > 30 µM (inactive)

query: Also need COc1cc(Nc2ncc3c(n2)-c2ccc(Cl)cc2C(c2c(F)cccc2OC)=NC3)ccc1C(=O)O [ALISERTIB] , thanks.
result: > 30 µM (inactive)

query: Also need N#CC1(c2ccc(NC(=O)c3cccnc3NCc3ccncc3)cc2)CCCC1 [RIVOCERANIB] , thanks.
result: > 30 µM (inactive)

query: Also need CCCCCCCCCCCCCCCCCCOP(=O)([O-])OC1CC[N+](C)(C)CC1 [PERIFOSINE] , thanks.
result: > 30 µM (inactive)

query: Also need CCS(=O)(=O)c1cccc(-c2cc(C(=O)NC3CCN(C)CC3)c(C)c3[nH]c4ncc(C)cc4c23)c1 [TAK-901] , thanks.
result: > 30 µM (inactive)

query: Also need C[C@@H](Oc1cc(-n2cnc3ccc(CN4CCN(C)CC4)cc32)sc1C(N)=O)c1ccccc1C(F)(F)F [GSK-461364] , thanks.
result: > 30 µM (inactive)

query: Also need CN1C/C=C/CCOc2cccc(c2)-c2ccnc(n2)Nc2cccc(c2)C1 [ZOTIRACICLIB] , thanks.
result: > 30 µM (inactive)

---

Active and inactive are the calls of the source.
This section lists Kd readings for UniProt:P21709.
Sequence (P21709 whole entry): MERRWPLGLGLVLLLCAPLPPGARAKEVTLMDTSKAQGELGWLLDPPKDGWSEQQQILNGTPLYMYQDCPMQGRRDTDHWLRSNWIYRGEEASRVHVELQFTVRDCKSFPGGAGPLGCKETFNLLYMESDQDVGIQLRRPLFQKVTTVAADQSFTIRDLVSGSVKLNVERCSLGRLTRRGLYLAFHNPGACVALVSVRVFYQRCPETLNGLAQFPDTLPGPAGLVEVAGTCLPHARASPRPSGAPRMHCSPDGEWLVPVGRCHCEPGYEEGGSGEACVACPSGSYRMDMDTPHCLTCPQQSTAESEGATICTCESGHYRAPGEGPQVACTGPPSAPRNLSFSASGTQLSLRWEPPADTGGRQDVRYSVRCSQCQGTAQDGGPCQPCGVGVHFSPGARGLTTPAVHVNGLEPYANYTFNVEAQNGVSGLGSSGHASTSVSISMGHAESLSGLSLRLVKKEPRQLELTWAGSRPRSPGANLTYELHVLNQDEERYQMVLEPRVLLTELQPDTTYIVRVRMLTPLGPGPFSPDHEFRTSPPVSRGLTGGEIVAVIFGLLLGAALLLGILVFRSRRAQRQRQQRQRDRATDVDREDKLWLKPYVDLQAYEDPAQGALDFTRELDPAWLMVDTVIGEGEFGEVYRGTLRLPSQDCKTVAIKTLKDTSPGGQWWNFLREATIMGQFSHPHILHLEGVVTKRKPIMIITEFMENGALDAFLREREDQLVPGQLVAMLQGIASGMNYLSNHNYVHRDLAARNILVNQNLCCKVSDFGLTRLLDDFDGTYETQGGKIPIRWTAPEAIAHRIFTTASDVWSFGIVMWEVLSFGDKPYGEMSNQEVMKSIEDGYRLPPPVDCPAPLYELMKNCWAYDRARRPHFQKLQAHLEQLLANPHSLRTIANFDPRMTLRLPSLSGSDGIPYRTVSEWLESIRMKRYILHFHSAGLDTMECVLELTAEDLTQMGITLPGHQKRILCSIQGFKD

query: Item "O=C(Nc1nc2cccc(-c3ccc(CN4CCS(=O)(=O)CC4)cc3)n2n1)C1CC1" has what recorded Kd?
result: > 30 µM (inactive)

query: Also need "CN1C/C=C/CCOc2cccc(c2)-c2ccnc(n2)Nc2cccc(c2)C1" , thanks.
result: > 30 µM (inactive)

query: Also need O=c1[nH]ccc2cc(OC3CCNCC3)ccc12 [SAR-407899 FREE BASE] , thanks.
result: > 30 µM (inactive)

---

Target: Serine/threonine-protein kinase STK11 (Homo sapiens, UniProt Q15831); further: in the data inactive means no Kd found up to 30 µM
Sequence (Q15831 whole entry): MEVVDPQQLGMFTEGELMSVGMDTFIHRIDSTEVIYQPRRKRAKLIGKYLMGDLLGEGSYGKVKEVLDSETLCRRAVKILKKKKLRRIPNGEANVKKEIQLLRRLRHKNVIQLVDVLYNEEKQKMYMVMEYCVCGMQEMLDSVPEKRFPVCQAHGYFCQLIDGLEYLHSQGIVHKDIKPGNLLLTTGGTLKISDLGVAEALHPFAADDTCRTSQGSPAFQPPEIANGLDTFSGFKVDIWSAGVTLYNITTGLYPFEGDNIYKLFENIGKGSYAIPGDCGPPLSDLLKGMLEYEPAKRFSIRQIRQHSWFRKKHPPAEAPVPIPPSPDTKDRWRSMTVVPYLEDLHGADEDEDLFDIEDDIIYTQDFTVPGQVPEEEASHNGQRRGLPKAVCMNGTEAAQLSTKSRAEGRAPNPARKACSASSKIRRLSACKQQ
The source made the active and inactive calls.
recorded-endpoint: Kd

query: Item "NC1(c2ccc(-c3nc4ccn5c(=O)[nH]nc5c4cc3-c3ccccc3)cc2)CCC1" has what recorded Kd?
result: > 30 µM (inactive)

query: Also need "Cc1nc2cc(-c3nn(C(C)C)c4ncnc(N)c34)ccc2o1" , thanks.
result: > 30 µM (inactive)

query: Also need "CO[C@H]1C[C@@H]2CC[C@@H](C)[C@@](O)(O2)C(=O)C(=O)N2CCCC[C@H]2C(=O)O[C@H]([C@H](C)C[C@@H]2CC[C@@H](OP(C)(C)=O)[C@H](OC)C2)CC(=O)[C@H](C)/C=C(\C)[C@@H](O)[C@@H](OC)C(=O)[C@H](C)C[C@H](C)/C=C/C=C/C=C/1C" , thanks.
result: > 30 µM (inactive)

---

Biological target: Dual specificity mitogen-activated protein kinase kinase 2 (Homo sapiens, UniProt P36507); further: in the data inactive means no Kd found up to 30 µM
Sequence (P36507 whole entry): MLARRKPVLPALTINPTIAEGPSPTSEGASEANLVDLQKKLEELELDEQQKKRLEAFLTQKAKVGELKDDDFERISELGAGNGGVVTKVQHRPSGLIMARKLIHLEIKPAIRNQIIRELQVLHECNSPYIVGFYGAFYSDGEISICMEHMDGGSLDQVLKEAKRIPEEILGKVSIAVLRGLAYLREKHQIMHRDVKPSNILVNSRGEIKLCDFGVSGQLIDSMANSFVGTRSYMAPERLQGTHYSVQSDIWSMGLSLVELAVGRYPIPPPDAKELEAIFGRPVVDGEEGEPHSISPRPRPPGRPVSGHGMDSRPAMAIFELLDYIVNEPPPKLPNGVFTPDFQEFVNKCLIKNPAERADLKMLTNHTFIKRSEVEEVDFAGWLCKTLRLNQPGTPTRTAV
The source made the active and inactive calls.
Hi there, use one of these labels in your reply, thanks! Y = active, N = inactive

query: Please state the recorded outcome for this compound: CCn1cc(-c2ccnc3[nH]c(-c4cccc(CN(C)C)c4)cc23)c(-c2ccc(NC(=O)N(C)C)cc2)n1 [GSK-1070916]
result: N

query: Also need Cn1cc(-c2cnc3ccc4ccc(CS(=O)(=O)NCc5ccccn5)cc4c(=O)c3c2)cn1 [MK-8033] , thanks.
result: N

query: Also need O=C(Nc1nc2cccc(-c3ccc(CN4CCS(=O)(=O)CC4)cc3)n2n1)C1CC1 [FILGOTINIB] , thanks.
result: N

query: Also need "Cc1nc2cc(-c3nn(C(C)C)c4ncnc(N)c34)ccc2o1" , thanks.
result: Y

query: Also need "C=CC(=O)N1CCC[C@H](n2c(=O)n(-c3ccc(Oc4ccccc4)cc3)c3c(N)ncnc32)C1" , thanks.
result: N

query: Also need CN(C[C@@H]1COCCO1)S(=O)(=O)Nc1ccc2ccc3ncc(-c4cnn(C)c4)cc3c(=O)c2c1 [MK-2461] , thanks.
result: N

query: Also need O=C1NC(=O)[C@@H](c2cn3c4c(cccc24)CCC3)[C@@H]1c1c[nH]c2ccccc12 [TIVANTINIB] , thanks.
result: N

query: Also need Cc1csc(-c2nnc(Nc3ccc(Oc4ncccc4-c4ccnc(N)n4)cc3)c3ccccc23)c1 [AMG-900] , thanks.
result: Y

---

Target: Serine/threonine-protein kinase PAK 6 (Homo sapiens); further: in the data inactive means no Kd found up to 30 µM
Sequence (Q9NQU5 whole entry): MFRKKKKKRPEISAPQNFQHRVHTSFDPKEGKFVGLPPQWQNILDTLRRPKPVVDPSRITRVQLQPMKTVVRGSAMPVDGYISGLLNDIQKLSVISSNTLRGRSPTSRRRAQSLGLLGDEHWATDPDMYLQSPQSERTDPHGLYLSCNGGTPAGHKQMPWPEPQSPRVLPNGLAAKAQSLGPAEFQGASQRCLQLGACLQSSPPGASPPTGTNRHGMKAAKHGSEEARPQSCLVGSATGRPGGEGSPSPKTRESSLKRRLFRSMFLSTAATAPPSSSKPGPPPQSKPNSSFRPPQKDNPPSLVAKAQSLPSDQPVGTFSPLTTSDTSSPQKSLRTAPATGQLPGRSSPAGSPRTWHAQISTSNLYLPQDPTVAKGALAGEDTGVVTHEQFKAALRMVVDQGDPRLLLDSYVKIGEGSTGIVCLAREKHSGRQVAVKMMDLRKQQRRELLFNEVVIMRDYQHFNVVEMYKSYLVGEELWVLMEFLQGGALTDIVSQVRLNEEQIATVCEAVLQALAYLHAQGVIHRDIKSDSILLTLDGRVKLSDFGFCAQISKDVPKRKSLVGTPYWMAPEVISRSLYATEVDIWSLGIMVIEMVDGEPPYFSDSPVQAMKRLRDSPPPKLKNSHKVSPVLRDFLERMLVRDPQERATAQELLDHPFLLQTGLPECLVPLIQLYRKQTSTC
Activity calls are given as the source filed them.
Hi there, use one of these labels in your reply, thanks! active, inactive

query: Please state the recorded outcome for this compound: "C[C@@H](N)c1ccc(C(=O)Nc2ccnc3[nH]ccc23)cc1"
result: inactive

query: Also need "O=C(Nc1c[nH]nc1-c1nc2cc(CN3CCOCC3)ccc2[nH]1)NC1CC1" , thanks.
result: active

query: Also need Cc1[nH]c(/C=C2\C(=O)Nc3ccccc32)c(C)c1CCC(=O)O [ORANTINIB] , thanks.
result: inactive

query: Also need "NC(=O)c1c(OCc2c(F)cc(Br)cc2F)nsc1NC(=O)NCCCCN1CCCC1" , thanks.
result: inactive

query: Also need "Cc1cnc(NC(=O)Nc2cc(Br)c(C)cc2OC[C@@H]2CNCCO2)cn1" , thanks.
result: inactive

---

Target: Tyrosine-protein kinase HCK (Homo sapiens, UniProt P08631); further: in the data inactive means no Kd found up to 30 µM
Sequence (P08631 whole entry): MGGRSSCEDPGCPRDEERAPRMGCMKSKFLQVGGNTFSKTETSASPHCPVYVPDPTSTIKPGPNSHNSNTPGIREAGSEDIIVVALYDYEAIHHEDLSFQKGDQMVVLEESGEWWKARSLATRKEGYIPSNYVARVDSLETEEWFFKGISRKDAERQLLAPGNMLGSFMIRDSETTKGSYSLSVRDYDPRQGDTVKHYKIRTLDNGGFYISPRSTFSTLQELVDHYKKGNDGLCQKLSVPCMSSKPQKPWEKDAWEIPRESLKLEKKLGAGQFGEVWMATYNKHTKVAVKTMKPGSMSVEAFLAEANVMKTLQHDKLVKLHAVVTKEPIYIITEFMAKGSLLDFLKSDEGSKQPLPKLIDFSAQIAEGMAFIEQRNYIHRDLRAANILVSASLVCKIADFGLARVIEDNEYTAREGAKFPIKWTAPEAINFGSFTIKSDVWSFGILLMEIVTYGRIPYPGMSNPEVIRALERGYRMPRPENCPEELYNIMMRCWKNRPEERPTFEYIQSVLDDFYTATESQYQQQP
Calls of active or inactive are those of the source.
Hi there, use one of these labels in your reply, thanks! active, inactive

query: Please state the recorded outcome for this compound: "O=C(Nc1c[nH]nc1-c1nc2cc(CN3CCOCC3)ccc2[nH]1)NC1CC1"
result: active

query: Also need "C[C@H]1CNCCCN1S(=O)(=O)c1cccc2cncc(F)c12" , thanks.
result: inactive

query: Also need "CN1C/C=C/CCOc2cccc(c2)-c2ccnc(n2)Nc2cccc(c2)C1" , thanks.
result: inactive

query: Also need "Cn1ncc(Cl)c1-c1cc(C(=O)N[C@H](CN)Cc2ccc(F)c(F)c2)oc1Cl" , thanks.
result: inactive

query: Also need "COc1ccc(S(=O)(=O)N(C(C)=O)c2ccccc2/C=C/c2cc[n+]([O-])cc2)cc1" , thanks.
result: inactive

query: Also need "Cc1csc(-c2nnc(Nc3ccc(Oc4ncccc4-c4ccnc(N)n4)cc3)c3ccccc23)c1" , thanks.
result: inactive

query: Also need "Cc1nc(NC(=O)N2CCC[C@H]2C(N)=O)sc1-c1ccnc(C(C)(C)C(F)(F)F)c1" , thanks.
result: inactive

query: Also need "Cn1cc(-c2cnc3ccc4ccc(CS(=O)(=O)NCc5ccccn5)cc4c(=O)c3c2)cn1" , thanks.
result: inactive
